system: Chordin-like protein 2 (CHRDL2); experiment: CHRDL2 small-molecule binders, primary screen, biochemical, small-molecule microarray, 635 nm fluorescence (AID 1126); conditions: small-molecule microarray binding, fluorescence 635 nm; higher = more signal;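 also: printed compound slides probed with Chrdl2 protein at 4 µg/mL for 1 h at 4 C; score merges 667 nm emission intensity with signal to noise over three replicate slides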
Listed here are compounds together with their documented composite z-score.
Give the figure only, with no unit attached.

Example results:
INSERT INTO results (compound, assayed_target, data_value) VALUES
  ('C[C@H]1NC(=O)[C@@]23C(=O)N[C@@H](Cc4ccccc4)C2[C@H](C)[C@@]2(C)O[C@H]2C3/C=C/C/C=C\CNC(=O)[C@@H]2CCCN2C1=O (stereo not given in full)', 'Chordin-like protein 2 (CHRDL2)', 0.258),
  ('C=C[C@H](C)[C@@H](OC(=O)Nc1ccc(OC)cc1)c1ccc(O)c2ccccc12', 'Chordin-like protein 2 (CHRDL2)', 0.257),
  ('CN(C)C(=O)[C@]1(Cc2ccccc2N=[N+]=[N-])N=C(c2ccc(OCCCO)cc2)O[C@@H]1c1ccccc1N=[N+]=[N-]', 'Chordin-like protein 2 (CHRDL2)', -0.206),
  ('[N-]=[N+]=NCc1ccccc1[C@@H]1OC(c2ccc(OCCCO)cc2)=N[C@]1(Cc1ccccc1)C(=O)NCC(O)CO (stereo not given in full)', 'Chordin-like protein 2 (CHRDL2)', -0.549),
  ('CCCC[C@H]1OB(O)C[C@H]2C1=C(COC)C[C@H]1C(=O)N(C)C(=O)[C@H]12', 'Chordin-like protein 2 (CHRDL2)', 0.245),
  ('C=CCC(OC(C)=O)[C@@H]1[C@@H](N(Cc2ccc(-c3ccccc3)cc2)C(=O)Cc2ccc(OC)cc2)c2cc(OCCCO)ccc2N1C(=O)Cc1ccc2ccccc2c1 (stereo not given in full)', 'Chordin-like protein 2 (CHRDL2)', -0.0169),
  ('CC1CC/C=C\[C@H]2OC34C=CCN(C(C)(C)C)C(=O)[C@H]3N(CCO)C(=O)[C@@H]4C2C(=O)O1 (stereo not given in full)', 'Chordin-like protein 2 (CHRDL2)', -1.31),
  ('CC(C)[Si]1(C(C)C)O[C@@H](c2ccccc2)c2cc(-c3ccc(-c4ccc(Cl)c(Cl)c4)o3)nc(-c3ccccc3)c21', 'Chordin-like protein 2 (CHRDL2)', -0.432),
  ('NC(=O)NCC#Cc1ccc2c(c1)[C@]1(C(=O)N2)[C@H](c2ccccc2OCCO)N2[C@H](c3ccccc3)[C@H](c3ccccc3)OC(=O)[C@H]2[C@@H]1C(=O)Nc1nc2ccccc2s1', 'Chordin-like protein 2 (CHRDL2)', -0.287),
  ('CC#CC(=O)Oc1ccccc1C=CC(=O)OCC', 'Chordin-like protein 2 (CHRDL2)', -0.0448);

What value of composite z-score has been reported for the following compound? CCC(CC)C(O)C1C=CC2C(=O)NC(=O)C2N1Nc1ccccn1 (stereo not given) 0.416

Which composite z-score value is on record for O=C1O[C@@H](c2ccccc2)[C@@H](c2ccccc2)N2[C@@H](c3ccccc3OCCO)[C@]3(C(=O)Nc4ccc(C#CC5=CCCCC5)cc43)[C@@H](C(=O)N3CCCCCCC3)[C@H]12 ? 1.68

Any idea what composite z-score was measured for Cc1nc2cc(Br)ccc2c(=O)o1 ? 0.126

Value lookup for composite z-score; key = C=CC[C@]1(C(=O)NCc2ccccc2)N=C(c2ccc(OCCCO)cc2)O[C@H]1c1ccccc1N=[N+]=[N-] -0.567

Return reported composite z-score; argument: COCCCNC(=O)[C@]1(CCC(=O)OC(C)(C)C)N=C(c2ccc(OCCCO)cc2)O[C@@H]1c1ccccc1CN=[N+]=[N-] 0.0091

###

The reader will find reported composite z-score values listed item by item below.
tested on: Inhibin beta A chain (activin A); assay: INHBA (activin A) binders on microarrays, primary screen, biochemical, small-molecule microarray, 635 nm fluorescence scan (AID 1107); conditions: small-molecule microarray binding, higher = more signal;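 also: mouse activin A protein probed at 4.33 µg/mL on printed slides; score merges bound-protein fluorescence near 667 nm with spot signal-to-noise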
The reply should be a number, written without any unit.

INSERT INTO measurements (compound, data_value) VALUES
  ('CCOC(=O)C[C@H]1[C@H](OC(=O)c2ccc(C(=O)c3ccccc3)cc2)[C@@H](NC(=O)CC(C)C)c2cc(OCCCO)ccc2N1C(=O)c1ccc2ccccc2n1', 0.241),
  ('CCCC[C@@H]1C[C@H]1[C@@H](NC(=O)c1ccco1)c1ccc(-c2ccccc2)cc1', 0.39),
  ('CN1C(=O)C2C=CC(C(O)c3ccco3)N(Nc3ccccc3)C2C1=O (configuration not stated)', 1.16),
  ('CC(C)C(=C=CC[C@@H](O)c1ccc(OCCO)cc1)C[C@@H](O)COCc1ccccc1', 0.992),
  ('COc1ccc(C#Cc2ccc3c(c2)[C@]2(C(=O)N3)[C@H](C(=O)NC[C@H](O)c3ccccc3)[C@H]3C(=O)O[C@H](c4ccccc4)[C@H](c4ccccc4)N3[C@@H]2c2ccc(O)cc2)cc1', 0.0998),
  ('CCC(CC)C(O)C1C=CC2C(=O)NC(=O)C2N1Nc1ccc(Cl)cc1Cl (configuration not stated)', 0.764),
  ('O=C1C[C@@](C(=O)NCCN2CCOCC2)(c2ccc([N+](=O)[O-])cc2)[C@@H](c2ccc(CO)cc2)N1CC12CC3CC(CC(C3)C1)C2', 0.403),
  ('CCCC#C[Si](O[C@H](CC)c1cn(Cc2cccc(Cl)c2)nn1)(C(C)C)C(C)C', -0.121);

Could you now look at the following compound, please?
Record COC(=O)[C@@]1(Cc2ccc(OC)cc2)[C@H]2c3cc(C(=O)N4CCCC4)n(Cc4ccc(C)c(F)c4F)c3C[C@H]2CN1C(=O)c1ccccc1 : what is its composite z-score with Inhibin beta A chain (activin A)? 0.702

###

assay: modulators of HCV replicon luciferase signal, primary screen, HCV replication inhibitor project, Huh7 cells, luciferase reporter (AID 1109); details: 48 h, higher = more signal;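 also: huh7 hepatoma cells harbouring a luciferase neomycin HCV replicon reporter; luciferase luminescence as measure of HCV replicon replication; test concentration not given here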
RECORDED_ENDPOINT: z-score
Simply state the number, no unit and no words.

Some entries whose results are on file:
INSERT INTO assay_data (molecule, data_value) VALUES
  ('C=CCOC(=O)[C@@H]1[C@H]2C(=O)O[C@H](c3ccccc3)[C@H](c3ccccc3)N2[C@H](c2ccc(OCCOC(=O)[C@@H]3C[C@@H]4C(=O)NCC(=O)N4[C@@H]3c3ccc(O)cc3)cc2)[C@@]12C(=O)Nc1ccc(I)cc12', -1.29),
  ('O=C1O[C@H](c2ccccc2)[C@H](c2ccccc2)N2[C@H]1[C@@H](C(=O)N1CCCCCCC1)[C@]1(C(=O)Nc3ccc(C#CC4=CCCCC4)cc31)[C@H]2c1ccc(OCCO)cc1', -2.06),
  ('CCCCCN1CC=CC23O[C@@H]4C=CCCOC(=O)C4[C@H]2C(=O)N(CCCCCO)[C@@H]3C1=O (stereo partly specified)', -0.605),
  ('CC1(C)[C@@H]2CC(C(O)C3C=CC4C(=O)N(c5ccccc5)C(=O)C4N3Nc3ccc([N+](=O)[O-])cc3)=C[C@H]1C2 (stereo partly specified)', -1.56),
  ('NC(=O)NCC#Cc1ccc2c(c1)[C@]1(C(=O)N2)[C@H](C(N)=O)[C@H]2C(=O)O[C@H](c3ccccc3)[C@H](c3ccccc3)N2[C@@H]1c1ccc(O)cc1', 0.408);

Turning now to a further record.
May I ask what z-score has been recorded for C=CCOC(=O)[C@H]1[C@@H]2C(=O)O[C@@H](c3ccccc3)[C@@H](c3ccccc3)N2[C@@H](c2ccc(OCCOC(=O)[C@@H]3C[C@@H]4C(=O)N[C@@H](CC(C)C)C(=O)N4[C@@H]3c3ccc(O)cc3)cc2)[C@]12C(=O)Nc1ccccc12 ? -1.47

###

tested on: Sam68 (KHDRBS1); experiment: Sam68 small-molecule binders, primary screen, biochemical, small-molecule microarray, 635 nm fluorescence (AID 1125); details: small-molecule microarray binding, higher = more signal;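 also: score merges 667 nm channel intensity with signal to noise over triplicate slides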
// composite z-score lookup, one value per entry
Give the figure by itself; no unit, no explanation.

Solved entries:
INSERT INTO results (molecule, data_value) VALUES
  ('O=C(OCc1ccccc1)C1=CCC2c3[nH]c4ccccc4c3C(=O)C1N2S(=O)(=O)c1ccccc1[N+](=O)[O-] (configuration not stated)', 1.06),
  ('[N-]=[N+]=NCc1ccccc1C[C@]1(C(=O)N2CCCCC2)N=C(c2ccc(OCCCO)cc2)O[C@H]1c1ccccc1N=[N+]=[N-]', 1.33),
  ('CCCC=C(CCC)[C@@H](NC(=O)c1cccs1)c1ccc(C(F)(F)F)cc1', 1.23),
  ('COc1ccc([Si](C)(C)[C@H]2[C@H](CCO)O[C@@]3(C(=O)N(Cc4ccc(N(C=O)c5ccccc5)cc4)c4ccccc43)[C@@H]2C)cc1', -0.852),
  ('C=CCC(OC(C)=O)[C@@H]1[C@@H](N(Cc2cc3ccccc3o2)C(=O)c2cccc3ccccc23)c2cc(OCCCO)ccc2N1C(=O)c1ccc(-c2ccccc2)cc1 (some centres not stated)', 0.195),
  ('C=CCC(OC(C)=O)[C@@H]1[C@@H](N(Cc2ccc(-c3ccccc3)cc2)C(=O)Cc2ccc(OC)cc2)c2cc(OCCCO)ccc2N1C(=O)Cc1ccc2ccccc2c1 (some centres not stated)', -0.493);

Recorded composite z-score for COc1ccc([Si](C)(C)[C@@H]2[C@@H](CC(=O)N3CCC[C@H]3CO)O[C@]3(C(=O)N(c4ccccc4)c4ccccc43)[C@H]2C)cc1 , please? 1.3
